# protein stability index per entry
B1: ESRRG (parent)
chain: YSCPATNECEITKRRRKSCQACRF

Variants of: B1
Test: protein stability index of a GFP-peptide fusion (GPS, HEK-293T) (PSI 1-6); higher = more stable;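 note: lentivirally expressed fusions sorted by FACS into six bins by GFP to DsRed ratio, PSI derived from sequencing read proportions per bin multiplied by bin number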
Settings: c terminus: a fixed tail appended
reported-endpoint: protein stability index

1. YSCPAYNECEITKRRRKSCQACRF [T6Y] :: 2.29
2. YSCPATNECEITKRRRKSFQACRF [C19F] :: 3.17
3. YSCPTTNECEITKRRRKSCQACRF [A5T] :: 2.78
4. YSCPATNECEITKRRRKSCQAMRF [C22M] :: 2.9
5. YSCPATNVCEITKRRRKSCQACRF [E8V] :: 3.05
6. YSCPATRECEITKRRRKSCQACRF [N7R] :: 3.56
7. YSCPATNECEITKRRRRSCQACRF [K17R] :: 3.31
8. YSCPLTNECEITKRRRKSCQACRF [A5L] :: 3.2
9. YSCPATNECEITKRRRKSCQANRF [C22N] :: 4.09
10. YSCEATNECEITKRRRKSCQACRF [P4E] :: 3.2
11. YSCPATNECEITKRRRKSCQACRA [F24A] :: 4
12. YSCPATNECEITKRRRKSCQACRD [F24D] :: 4.07
13. YSCPATNECEITKRRRKSCQTCRF [A21T] :: 3.47
14. YSCPATNECEITKRRRKCCQACRF [S18C] :: 3.31
15. GSCPATNECEITKRRRKSCQACRF [Y1G] :: 4.02
16. YSCPATNECEITKRERKSCQACRF [R15E] :: 3.37
17. YSCPATNECEITKIRRKSCQACRF [R14I] :: 3.03
18. YCCPATNECEITKRRRKSCQACRF [S2C] :: 2.52
19. YSCPATNECEITKRRRKSCTACRF [Q20T] :: 2.93
20. YSCPATNECEITKRRRKSCQACRW [F24W] :: 2.88
21. YSCPATNECEITKRRRKSCQACRH [F24H] :: 4.18
22. YSCPATNEREITKRRRKSCQACRF [C9R] :: 3.38
23. YACPATNECEITKRRRKSCQACRF [S2A] :: 2.1
24. YSCPATNECEIHKRRRKSCQACRF [T12H] :: 4.38
25. YSCPATNECEITKRRRKECQACRF [S18E] :: 3.43
26. YSCPATNACEITKRRRKSCQACRF [E8A] :: 3.46
27. YSCPAINECEITKRRRKSCQACRF [T6I] :: 3.31
28. YSCPATNECEITKRRRKSCQICRF [A21I] :: 2.54
29. YSCPATNECEITKRRRKSCRACRF [Q20R] :: 3.49
30. YSCPATNECEITKRRRKSCQACSF [R23S] :: 3.22
31. YSCPAGNECEITKRRRKSCQACRF [T6G] :: 3.65
32. YSCPATNECEITKRRRKSCEACRF [Q20E] :: 3.62
33. YSCPATNGCEITKRRRKSCQACRF [E8G] :: 3.54
34. YSCPATNDCEITKRRRKSCQACRF [E8D] :: 2.92
35. YHCPATNECEITKRRRKSCQACRF [S2H] :: 2.47
36. YSCPATNECEITKRRRKSCVACRF [Q20V] :: 2.78
37. YSCPATKECEITKRRRKSCQACRF [N7K] :: 3.57
38. YSPPATNECEITKRRRKSCQACRF [C3P] :: 3.58
39. YSCPATNECEITLRRRKSCQACRF [K13L] :: 3.15
40. YSCPATNECEITKRQRKSCQACRF [R15Q] :: 3.38
41. YSCPATNECEITNRRRKSCQACRF [K13N] :: 3.43
42. YSCPATNECEITKRRNKSCQACRF [R16N] :: 3.69
43. RSCPATNECEITKRRRKSCQACRF [Y1R] :: 4.21
44. ISCPATNECEITKRRRKSCQACRF [Y1I] :: 3.6
45. YSCPATNECEITKRRFKSCQACRF [R16F] :: 2.92
46. YSCPATNECEITKRARKSCQACRF [R15A] :: 3.33
47. YSCPATNECEYTKRRRKSCQACRF [I11Y] :: 3.04
48. YSCPATNECEITKRRLKSCQACRF [R16L] :: 2.92
49. YSCPATNECEITKRRRKSCQSCRF [A21S] :: 3.23
50. YSCPATNECEITKRRIKSCQACRF [R16I] :: 3.31
51. YSCPATNEAEITKRRRKSCQACRF [C9A] :: 3.39
52. YECPATNECEITKRRRKSCQACRF [S2E] :: 4.1
53. YSCPATNRCEITKRRRKSCQACRF [E8R] :: 3.13
54. YSCMATNECEITKRRRKSCQACRF [P4M] :: 2.76
55. YSCPRTNECEITKRRRKSCQACRF [A5R] :: 2.89
56. YSCPATNECEIQKRRRKSCQACRF [T12Q] :: 3.25

Recorded values, source the supplement of paper PMC10567573.
